Test system: U251 CNS
test-method-notes: NCI tumour cell line growth inhibition, 48 h
observation-type: TGI

// below: answered compounds
COc1ccc(/C=C2\CCC(C)C3=C2NC(=S)NC3c2ccc(OC)c(OC)c2)cc1OC (stereo not given) = > 31.6 µM
O=C1C2C(C(=O)N1OS(=O)(=O)c1ccccc1)N(Cc1ccccc1)C(=O)N2Cc1ccccc1 (stereo not given) = > 100 µM
Nc1cccc2cc(Cl)cnc12 = > 100 µM
COc1ccc2c(c1)/C(=C/c1c(C)nc3sc(C)nn13)C(=O)N2 = > 100 µM

Turning to the following compound.
The compound listed as COC(=O)C1CCC(=O)N1C(c1ccccc1)c1ccc(OC)c(OC)c1 (stereo not given) has a reported TGI of > 100 µM

====

Parameter: TGI. Scope: all listed entries.
Test system: UACC-62 melanoma
test-method-notes: NCI tumour cell line growth inhibition, 48 h
Answer format: numeric, µM implied, no suffix.

CCCCOC(=O)C1OC(O[C@H]2CCC3(C)C(CCC4(C)C3CC=C3C5CC(C)(C)CCC5(C(=O)O)CC[C@]34C)C2(C)C)C(OC2OC(CO)C(O)C(O)C2O)C(OC2OC(CO)C(O)C(O)C2O)C1O (stereo partly drawn) = 36.1

Next:
Per the reported UACC-62 melanoma data, COc1cc(Cc2cnc(/N=C3\C(=O)N(CN4CCN(c5c(F)cc6c(=O)c(C(=O)O)cn(C7CC7)c6c5OC)CC4C)c4ccc(F)cc43)nc2N)cc(OC)c1OC (stereo not drawn) has TGI of 26

====

Test system: U251 CNS
test-method-notes: NCI tumour cell line growth inhibition, 48 h
observation-type: TGI (µM)
Write it as a number; the unit µM goes unstated.

Record excerpt, results attached:
Clc1cc(OC2C3CC4CC(C3)CC2C4)nc(Cl)n1 (stereo not given) = 31.9
C=C1C(=O)C23CC1CCC2C12CO[C@@H]4OCC(C)(CC[C@@H]1OC3=O)C42 (stereo not given in full) = 27.4

CCCCOC(=O)C1OC(O[C@H]2CCC3(C)C(CCC4(C)C3CC=C3C5CC(C)(C)CCC5(C(=O)O)CC[C@]34C)C2(C)C)C(OC2OC(CO)C(O)C(O)C2O)C(OC2OC(CO)C(O)C(O)C2O)C1O (stereo not given in full) yielded TGI of 31.8

Notebook: O=C1CC(c2ccc3c(c2)OCO3)Nc2ccccc21 (stereo not given) , TGI read as 24.7

====

Tested on: A549 NSCLC
test-method-notes: NCI tumour cell line growth inhibition, 48 h
observation-type: GI50

Query CCCCCN(CCCCC)CC(O)c1cc(C)c2ccc3cc(C(C)C)ccc3c2c1 (stereo not given) on A549 NSCLC; GI50 returned: 2.61 µM

The molecule Cc1ccc(NC2=C(Cl)C(=O)N(Cc3ccccc3)C2=O)cc1O on A549 NSCLC: GI50 was 42.1 µM

Let me check: COc1cc(-c2nn(-c3ccc(NC(=O)c4ccc(Cl)c(C(F)(F)F)c4)cc3)cc2-c2ccncc2)ccc1Cl , system A549 NSCLC, measured GI50 is 4.94 µM

I looked up NC(=O)c1sc(-n2cnc3ccccc32)cc1OCc1ccccc1Br and its GI50 for A549 NSCLC was 6.06 µM

====

System: UO-31 renal
test-method-notes: NCI tumour cell line growth inhibition, 48 h
# TGI values compiled below
Your answer is read as µM, so omit the unit and give the number.

Before answering, review these 3 worked examples.
O=C1C=C(Cl)C(=O)C(c2ccc(Cl)cc2)=C1 = 28.5
CCC12C=CCN3CCC4(C(=C(C(=O)OC)[C@@H]1O)Nc1ccccc14)C32 (stereo partly specified) = 6.49
Cc1nc2ccccc2c(N)c1-c1cc(C)c2c(C)nc3ccccc3c2n1 = 2.26

The measured TGI associated with CC1(C)N=C(/C(Cl)=[N+](/[O-])C(=O)c2ccc(F)cc2)C(C)(C)N1O reads 37.9

Lab note: measured TGI of COc1cc(-c2nn(-c3ccc(NC(=O)c4ccc(Cl)c(C(F)(F)F)c4)cc3)cc2-c2ccncc2)ccc1Cl was 5.46

The measured TGI associated with N#CC(c1ccc(Cl)cc1)c1cccc(C(C#N)c2ccc(Cl)cc2)n1 (stereo unspecified) reads 42.3

For this molecule ( CCCCCN(CCCCC)CCCNc1c2c(nc3ccc(Cl)cc13)CCCC2 ), measured TGI is 10.2
